Every entry's value here was drawn from the supplement of paper PMC6279402.

# System: A549
# protocolDetails: relative viability (normalised to negative control = 1, bortezomib = 0) (fraction); higher = less cytotoxic
# conditionLabel: inflammatory serum-free RHB-A with cytokines + LPS; 5 d + 24 h CellTiter-Blue; compound 300 nM; GSK126 pretreatment: none (vehicle)
Counter-ions that a name gives are not always drawn.
Record form. Attribute: relative viability. Fill in for each entry.
Numbers only.

For each entry beneath this line, provide reported relative viability.
1. COc1cc([C@@H]2c3cc4c(cc3[C@@H](O[C@@H]3O[C@@H]5CO[C@@H](C)O[C@H]5[C@H](O)[C@H]3O)[C@H]3COC(=O)[C@H]23)OCO4)cc(OC)c1O [Etoposide]
2. FC(F)c1nc2ccccc2n1-c1nc(N2CCOCC2)nc(N2CCOCC2)n1
3. CN(C)C1CCN(C(=O)c2ccc(NC(=O)Nc3ccc(-c4nc(N5CCOCC5)nc(N5CCOCC5)n4)cc3)cc2)CC1
4. O=C(c1ccc(OCCN2CCCCC2)cc1)c1c(-c2ccc(O)cc2)sc2cc(O)ccc12 [Raloxifene HCl; Raloxifene hydrochloride]
5. Nc1nc(F)nc2c1ncn2[C@@H]1O[C@H](COP(=O)(O)O)[C@@H](O)[C@@H]1O [Fludarabine; Fludarabine phosphate]
6. Oc1ccc(-c2nc(-c3ccc(F)cc3)c(-c3ccncc3)[nH]2)cc1
7. CN(c1ncccc1CNc1nc(Nc2ccc3c(c2)CC(=O)N3)ncc1C(F)(F)F)S(C)(=O)=O
8. Nc1ncnc2c1c(-c1cccc(OCc3ccccc3)c1)cn2C1CC(CN2CCCC2)C1 (stereo not drawn)

[reply]
1: 0.845; 2: 0.395; 3: 0.088; 4: 0.987; 5: 0.842; 6: 1.17; 7: 0.891; 8: 0.333

----------
# Test system: A549
# protocolDetails: relative viability (normalised to negative control = 1, bortezomib = 0) (fraction); higher = less cytotoxic
# conditionLabel: inflammatory serum-free RHB-A with cytokines + LPS; 5 d + 24 h CellTiter-Blue; compound 30 nM; GSK126 pretreatment: none (vehicle)
Structures can show the parent of a compound that is named as a salt.
Note to self: class labels come from recorded relative viability, ranges listed here: bin 1: < 0.8; bin 2: ≥ 0.8 and < 0.9; bin 3: ≥ 0.9

Below, 3 molecules whose answers are already recorded.
{"molecule": "Cc1ccc([N+](=O)[O-])cc1S(=O)(=O)N(C)/N=C/c1cnc2ccc(Br)cn12 [PIK-75 Hydrochloride]", "label": "bin 1"}
{"molecule": "O=C(O)C1(C(=O)O)CCC1.[NH2-].[NH2-].[Pt+2]", "label": "bin 1"}
{"molecule": "CCCCC(=O)OCC(=O)[C@]1(O)Cc2c(O)c3c(c(O)c2[C@@H](O[C@H]2C[C@H](NC(=O)C(F)(F)F)[C@H](O)[C@H](C)O2)C1)C(=O)c1c(OC)cccc1C3=O", "label": "bin 3"}

[ask] Band of CCC1=C[C@@H]2CN(C1)Cc1c([nH]c3ccccc13)[C@@](C(=O)OC)(c1cc3c(cc1OC)N(C)[C@H]1[C@@](O)(C(=O)OC)[C@H](OC(C)=O)[C@]4(CC)C=CCN5CC[C@]31[C@@H]54)C2 [Vinorelbine tartrate] ?
[reply] bin 1

[ask] Sort into band: `Nc1nc(N)c2nc(-c3cccc(O)c3)c(-c3cccc(O)c3)nc2n1`
[reply] bin 1

[ask] Hi, small favor: classify `O=C(CCBr)N1CCN(C(=O)CCBr)CC1` by its relative viability when you get a moment.
[reply] bin 1
